test system: biotinyl-Trp-oxazolone; experiment: self-aminoacylation, catalytic enhancement (BWO) (fold over background); higher = more active; k-Seq, kA / k0A0; sequences stand for … in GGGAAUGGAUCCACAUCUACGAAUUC…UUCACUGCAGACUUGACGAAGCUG
This sample holds only a part of the variants without activity.
Outcome label depends on self-aminoacylation relative to 2: at/above gives Criterion met, below gives Criterion not met.

CUUUACCUAGGUCAUCGGGUG [Fam2.2 aminoacylation ribozyme variant] : Criterion met
CCACACUUCACGUAAUCGGUC [Fam1B.1 aminoacylation ribozyme variant] : Criterion not met
AUUACCCAGUUCAUCGAGUGA [Fam2.1 aminoacylation ribozyme variant] : Criterion met
AAGUUUGGUAAUAGUCGCAAU [Fam3.1 aminoacylation ribozyme variant] : Criterion met
CCACACUUCAAGCUAUCGGCC [Fam1B.1 aminoacylation ribozyme variant] : Criterion not met
CUACUUCAAAGAAUCGGCCUG [Fam1A.1 aminoacylation ribozyme variant] : Criterion met

Okay, now this sequence:
Hi team, for UUACUUCAAACAAUGGGUCUG [Fam1A.1 aminoacylation ribozyme variant] , is the recorded self-aminoacylation at or above 2?
Criterion not met

This collection of values is drawn from the supplement of paper PMC9233669.
